Every entry's value here was drawn from patent US20230041134A1.

Target: T1, Her2 extracellular domain (Her2 ECD) (human, UniProt P04626 23-652)
T1 construct: For the crystal structure it was expressed in CHO cells and the complex was enzymatically deglycosylated; also called biotinylated Her2 ECD
Assay: SPR (BIAcore T100), IgG on anti-human IgG (Fc) capture chip, Her2 ECD, 1:1 Langmuir fit
MEASURED_PROPERTY: Kd (nM)
Give your result in nM as a bare value.

## Task Can you look up the measured Kd of 7C2.v3.3 (antibody, V domains shown) VH: EVQLVQSGAEVKKPGASVKVSCKASGYSFTGYWMNWLRQAPGQGLEWIGMIHPSDSEIRANQKFRDRATLTVDKSTSTAYLELSSLRSEDTAVYYCARGTYDGGFEYWGQGTLVTVSS VL: DIVLTQSPDSLAVSLGERATINCRASQSVSGSRFTYMHWYQQKPGQPPKLLIKYASILESGVPDRFSGSGSGTDFTLTISSLQAEDVAVYYCQHSWEIPPWTFGQGTKVEIK for me?
## Result 9
